# Test system: GAK;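 note: cell growth inhibition read out by a cell viability assay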
# assay_comment: cells
# Format: functional, cell-based
# cond: Homo sapiens
# Description: SANGER: Inhibition of human GAK cell growth in a cell viability assay.
pIC50: −log10 of the molar value.
pIC50 by entry:

[[record]]
molecule = "CC(O)(CS(=O)(=O)c1ccc(F)cc1)C(=O)Nc1ccc(C#N)c(C(F)(F)F)c1 (stereo not drawn) [BICALUTAMIDE]"
result = "< 5.99"

[[record]]
molecule = "CC(=O)c1c(C)c2cnc(Nc3ccc(N4CCNCC4)cn3)nc2n(C2CCCC2)c1=O"
result = "< 5.40"


# evaluate next
State the recorded pIC50 for this entry: Cc1n[nH]c2ccc(-c3cncc(OC[C@@H](N)Cc4c[nH]c5ccccc45)c3)cc12
< 5.99

###

# Tested on: CAL-85-1;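 note: growth inhibition of human CAL-85-1 cells, read out with a cell viability assay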
# assay_comment: cells
# Format: functional, cell-based
# cond: Homo sapiens
# Description: SANGER: Inhibition of human CAL-85-1 cell growth in a cell viability assay.
observable: IC50

State the recorded IC50 for this entry: COc1cc(Nc2c(C#N)cnc3cc(OCCCN4CCN(C)CC4)c(OC)cc23)c(Cl)cc1Cl
> 2 µM

State the recorded IC50 for this entry: CC[C@@]1(O)C(=O)OCc2c1cc1n(c2=O)Cc2cc3ccccc3nc2-1
> 0.1 µM

State the recorded IC50 for this entry: O=c1cc(N2CCOCC2)oc2c(-c3cccc4c3sc3ccccc34)cccc12
> 2 µM

State the recorded IC50 for this entry: CC[C@]1(O)C[C@@H]2CN(CCc3c([nH]c4ccccc34)[C@@](C(=O)OC)(c3cc4c(cc3OC)N(C)[C@H]3[C@@](O)(C(=O)OC)[C@H](OC(C)=O)[C@]5(CC)C=CCN6CC[C@]43[C@@H]65)C2)C1
> 0.1 µM

###

IC50 by entry:
# System: M059J
# assay_comment: cells
# Type: functional, cell-based
# cond: Homo sapiens
# Description: SANGER: Inhibition of human M059J cell growth in a cell viability assay.

// below: answered compounds
[[record]]
chemical_string = "C[C@]1(c2nc3c(C(N)=O)cccc3[nH]2)CCCN1"
observable = "IC50"
result = "> 5 µM"

[[record]]
chemical_string = "CCCS(=O)(=O)Nc1ccc(F)c(C(=O)c2c[nH]c3ncc(Cl)cc23)c1F"
observable = "IC50"
result = "> 10 µM"


# evaluate next
State the recorded IC50 for this entry: CC(=O)c1c(C)c2cnc(Nc3ccc(N4CCNCC4)cn3)nc2n(C2CCCC2)c1=O
> 4 µM

###

# System: RKO
# assay_comment: cells
# Assay type: functional, cell-based
# cond: Homo sapiens
# Description: SANGER: Inhibition of human RKO cell growth in a cell viability assay.
pIC50: −log10 of the molar value.
pIC50 by entry:

// below: answered compounds
[[record]]
chemical_string = "C[C@]1(c2nc3c(C(N)=O)cccc3[nH]2)CCCN1"
result = "< 5.30"

[[record]]
chemical_string = "Cn1cc(/C=C2\\C(=O)Nc3cccnc32)c2ccccc21"
result = "< 5.70"

[[record]]
chemical_string = "Cc1[nH]c(/C=C2\\C(=O)Nc3ccc(S(=O)(=O)Cc4c(Cl)cccc4Cl)cc32)c(C)c1C(=O)N1CCC[C@@H]1CN1CCCC1"
result = "< 5.70"

[[record]]
chemical_string = "CCCS(=O)(=O)Nc1ccc(F)c(C(=O)c2c[nH]c3ncc(Cl)cc23)c1F"
result = "< 5.00"


# evaluate next
State the recorded pIC50 for this entry: O=c1[nH]c2ccccc2n1C1CCN(Cc2ccc(-c3nc4cc5[nH]cnc5cc4nc3-c3ccccc3)cc2)CC1
< 5.59

###

# Tested on: GCIY
# assay_comment: cells
# Assay type: functional, cell-based
# cond: Homo sapiens
# Description: SANGER: Inhibition of human GCIY cell growth in a cell viability assay.
observable: IC50

[[record]]
chemical_string = "COc1cc(Nc2c(C#N)cnc3cc(OCCCN4CCN(C)CC4)c(OC)cc23)c(Cl)cc1Cl"
result = "> 2000 nM"

[[record]]
chemical_string = "CC(=O)c1c(C)c2cnc(Nc3ccc(N4CCNCC4)cn3)nc2n(C2CCCC2)c1=O"
result = "> 4000 nM"


# evaluate next
Lab request: please report IC50 under test system GCIY for Cn1cc(/C=C2\C(=O)Nc3cccnc32)c2ccccc21
> 2000 nM
